This collection of values is drawn from patent US20180282430A1.

- MEASURED ON: T1, Human TFPI (tissue factor pathway inhibitor) (human, UniProt P10646 29-304, limits assumed)
- T1 construct: Coated at 1 ug/ml on Maxisorb plates for the ELISA; For the Biacore work the human TFPI came from American Diagnostica
- T1 sequence (looked up): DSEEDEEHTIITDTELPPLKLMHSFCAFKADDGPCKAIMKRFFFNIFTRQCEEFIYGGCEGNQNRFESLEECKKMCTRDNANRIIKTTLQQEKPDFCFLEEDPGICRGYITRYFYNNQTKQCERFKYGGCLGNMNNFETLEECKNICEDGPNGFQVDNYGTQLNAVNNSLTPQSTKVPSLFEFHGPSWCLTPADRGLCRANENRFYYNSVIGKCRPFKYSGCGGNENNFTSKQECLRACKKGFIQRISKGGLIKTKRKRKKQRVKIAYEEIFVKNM
- TEST DETAILS: ELISA on plate-coated human TFPI; Fab expression media bound, then 1 h at 37 C in 100 mM citrate pH 6.0; amplex red
METRIC: TFPI ELISA signal, pH 6.0
No unit in the answer, please; the number alone is enough.

Illustrative cases are given below, each with its answer.
>>> quantitative_readout("2A8-g200 Fab VL-W90H (Fab, V domains shown, Member of the 2A8-g200 Fab histidine scanning library) VH: EVQLVESGGGLVQPGGSLRLSCAASGFTFSSYGMDWVRQAPGKGLEWVSSIRGSRGSTYYADSVKGRFTISRDNSKNTLYLQMNSLRAEDTAVYYCARLYRYWFDYWGQGTLVTVSS VL: SYELTQPPSVSVSPGQTARITCSGDNLPKYYAHWYQQKPGQAPVVVIFYDVNRPSGIPERFSGSNSGNTATLTISGTQAMDEADYYCQAHWSSTPVFGGGTKLTVLG")
1510
>>> quantitative_readout("2A8-g200 Fab VL-L27H (Fab, V domains shown, Member of the 2A8-g200 Fab histidine scanning library) VH: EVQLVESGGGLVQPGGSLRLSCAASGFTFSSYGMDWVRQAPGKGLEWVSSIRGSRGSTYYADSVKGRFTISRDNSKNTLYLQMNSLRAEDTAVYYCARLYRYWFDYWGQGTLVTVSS VL: SYELTQPPSVSVSPGQTARITCSGDNHPKYYAHWYQQKPGQAPVVVIFYDVNRPSGIPERFSGSNSGNTATLTISGTQAMDEADYYCQAWWSSTPVFGGGTKLTVLG")
2640

# evaluate next
Asked: For the binder shown here, 2A8-g200 Fab VH-Y102H (Fab, V domains shown, Member of the 2A8-g200 Fab histidine scanning library) VH: EVQLVESGGGLVQPGGSLRLSCAASGFTFSSYGMDWVRQAPGKGLEWVSSIRGSRGSTYYADSVKGRFTISRDNSKNTLYLQMNSLRAEDTAVYYCARLYRHWFDYWGQGTLVTVSS VL: SYELTQPPSVSVSPGQTARITCSGDNLPKYYAHWYQQKPGQAPVVVIFYDVNRPSGIPERFSGSNSGNTATLTISGTQAMDEADYYCQAWWSSTPVFGGGTKLTVLG , give the reported TFPI ELISA signal, pH 6.0.
Given back: 1080
